system tested: chimeric BTLA of humanised-BTLA mice (human extracellular region, murine transmembrane and signaling … (human; mouse, UniProt Q7TSA3 184-306, limits assumed)
Sequence (Q7TSA3 other isoform, or with tags, fused parts or gaps mutant limits assumed): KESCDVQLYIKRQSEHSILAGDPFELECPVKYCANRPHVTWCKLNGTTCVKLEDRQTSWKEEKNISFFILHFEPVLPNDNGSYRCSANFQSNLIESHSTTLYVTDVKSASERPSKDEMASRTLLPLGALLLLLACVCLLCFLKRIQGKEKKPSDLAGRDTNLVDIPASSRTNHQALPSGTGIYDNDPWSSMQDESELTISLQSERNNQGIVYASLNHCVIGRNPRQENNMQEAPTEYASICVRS
measurement notes: cell-based or functional assay
outcome measure: MLR (CD4 T cell proliferation) repeat 2, % inhibition (%)

| binder | reading unit | val |
| --- | --- | --- |
| 3A9 (antibody, IgG1, V domains shown) VH: QVQLKQSGAELVRPGASVKLSCKASGYTFTDYYINWVKQRPGQGLEWIARIYPGSGNTYYNEKFKGKATLTAEKSSSTAYMQLSSLTSEDSAVYFCARGYGNSDYWGQGTTLTVSS VL: DILLTQSPAILSVSPGERVSFSCRASQSIGTRIHWYQQRTNGSPRLLIKYASESISGIPSRFSGSGSGTDFTLSINSVESEDIADYYCQQSNSWPYTFGGGTKLEIK | % | 24 |
| 21C7 (antibody, IgG1, V domains shown) VH: QIQLQQSGPELVKPGASVKISCKASGYAFSSSWMNWVKKRPGKGLEWIGRIYPGDGDANYNGKFKGKATLTADKSSSTAYMQLSSLTSEDSAVYFCAGEGHYYGSGYRWYLDVWGTGTTVTVSS VL: DIQMTQSPASLSVSVGETVTITCRASENIYSNLAWYQQKQGKSPQLLVYAATNLADGVPSRFSGSGSGTQYSLKINSLQSEDFGSYYCQHFRGAPFTFGSGTKLEIK | % | 17 |
| 14D4 (antibody, IgG1, V domains shown) VH: QVQLQQPGAELVKPRASVKLSCKASGYTFTSYWMHWVKQRPGQGLEWIGMIHPNNGIPNYNEKFKSKATLTVDKSSTTAYMQLSSLTSEDSAVYHCAREGYYGSEGYFDVWGTGTTVTVSS VL: QIVLTQSPAIMSASPGEKVTMTCSASSSISYIHWYQQKPGTSPKRWIYDTSKLASGVPARFSGSGSGTSYSLTISSMEAEDAATYYCHQRSTYPYTFGGGTKLEIK | % | 26 |
| 26B1 (antibody, IgG1, V domains shown) VH: EVQLQQSGPVLVKPGASVKMSCKASGYTFTDYYLNWVKQSHGKSLEWIGLIDPYNGGSSCNQKFKGKATLTVDKSSSTAYMDLNSLTSEDSAVYYCARGNAMDYWGQGTSVTVSS VL: DIVMTQSHKFMSTSVGDRVSITCKASQDVSTAVAWYQEKPGQSPKLLIYWASTRHTGVPDRFTGSGSGTDYILNISSVQAEDLALYYCQQHYIIPYMFGGGTKLEIK | % | 10 |
| 8B4 (antibody, IgG1, V domains shown) VH: QVQLQQSGAELARPGASVKLPCKASGYTFTSYGISWVKQRTGQGLEWIGEIYPRSGTTYYNEKFKGKATLTADKSSSTAYMELRSLTSEDSAVYFCARRISSGSGVDYWGQGTTLTVSS VL: DIQMTQTTSSLSASLGDRVTISCSASQGISNYLNWYQQKPDGTVKLLIYYTSSLHSGVPSRFSGSGSGTDYSLTISNLEPEDIATYYCQQYSELPWTFGGGTKLEIK | % | 23 |
